assay: RP, Thermo Scientific Hypersil GOLD, 1.9 µm, 40 °C, 0.4 mL/min; A: water + 0.1% formic acid, pH 3; B: acetonitrile + 0.1% formic acid, pH 3; gradient (min/%B) 0/0 1/0 11/100 13/100 14/0 16/0; details: stereoisomer not certain
Test Readout: LC retention time (min)

Compound	Readout Units	LC retention time
O=C/C=C/c1ccccc1 [Trans-Cinnamaldehyde]	min	7.27

a = Nc1nc2nccnc2c(=O)[nH]1
b = CC(=O)NC(Cc1c[nH]c2ccccc12)C(=O)O (stereo unspecified)
Task: Between the entries labelled a and b , which has a larger LC retention time value on record? Indicate which entry you chose by stating its label.
Result: b

1 = Nc1ccc(C(=O)O)cc1 [4-AMINOBENZOATE]
2 = C[N+](C)(C)CC(=O)[O-]
3 = CC(=O)NC(Cc1ccccc1)C(=O)O (stereo unspecified)
4 = CC(=O)NC(CS)C(=O)O (stereo unspecified)
5 = CCCCCCCCC=CCCCCCCCCCCCCCC(=O)[O-] [NERVONATE]
Task: Let's sort these by LC retention time, smallest first. Go ahead? Response format: the labels, sorted as the prompt asks.
Result: 2, 4, 1, 3, 5
(2: 0.65 min, 4: 1.9 min, 1: 3.29 min, 3: 5.73 min, 5: 14 min)
